For each record, write down the corresponding minimal effective dose.
Tested on: behavior suppressed by punishment (Rat Conflict)
method: Suppression of Anxiety in the Adult Male Rat (conflict test)
Assay type: in vivo
condition-parameters: ip, minimum effective dose, p<0.05 1-tailed vs vehicle, 3-min test session, read-out: Rat Conflict MED

Consider the compound O=C1CCN2C(=C1C(=O)Nc1c(F)cccc1F)N(Cc1ccccn1)c1cc(F)ccc12 [CP# 24] and give its measured minimal effective dose.
10 mg/kg

If you can, please state the reported minimal effective dose value of O=C1CCN2C(=C1C(=O)Nc1c(F)cccc1F)N(Cc1ccco1)c1cc(F)ccc12 [CP# 27] .
> 10 mg/kg

Tell me the measured minimal effective dose of O=C1CCN2C(=C1C(=O)Nc1ccccc1F)N(Cc1ccccn1)c1ccccc12 [CP# 28] , please.
< 10 mg/kg

Which minimal effective dose is listed for O=C1CCN2C(=C1C(=O)Nc1c(F)cccc1F)N(Cc1ccsc1)c1cc(F)ccc12 [CP# 23] ?
> 10 mg/kg
